This collection of values is drawn from ChEMBL document CHEMBL1129258.

Target: DNA gyrase (Escherichia coli) (UniProt P0AES6+P0AES4)
Assay: In vivo efficacy against Escherichia coli JUHL after oral administration
Format: functional, organism-based
Conditions: Escherichia coli K-12
PROPERTY_NAME: ED50 (mg/kg)
Answers are plain numbers, in mg/kg.

Below: 5 compounds and their reported ED50.
{"columns": ["COMPOUND", "PROPERTY_NAME", "VALUE_MEASURED"],
 "data": [
  ["Cc1c(N2CC[C@@H]([C@H](C)N)C2)c(F)cn2c(=O)c(C(=O)O)cc(C3CC3)c12", "ED50", 3.3],
  ["CC(NC(=O)C(C)N[C@H]1C[C@H](C)N(c2nc3c(-c4ccc(F)cc4F)cc(C(=O)O)c(=O)n3cc2F)C1)C(=O)O (stereo partly drawn)", "ED50", 26.7],
  ["Cc1c(N2CC[C@@H](N)C2)c(F)cn2c(=O)c(C(=O)O)cc(C3CC3)c12", "ED50", 1],
  ["NC1CCN(c2nc3c(-c4ccc(F)cc4F)cc(C(=O)O)c(=O)n3cc2F)C1 (stereo not drawn)", "ED50", 5.6],
  ["Cc1c(N2CC[C@H](N)C2)c(F)cn2c(=O)c(C(=O)O)cc(C3CC3)c12", "ED50", 0.6]
]}

For every listed record, write down its ED50.
1. CC(NC1CCN(c2nc3c(-c4ccc(F)cc4F)cc(C(=O)O)c(=O)n3cc2F)C1)C(=O)O (stereo not drawn)
2. Cc1c(N2C[C@@H]3CCCN[C@@H]3C2)c(F)cn2c(=O)c(C(=O)O)cc(C3CC3)c12 (stereo in doubt; 45n)

16.6
3.3

* * *

Record form. Attribute: ED50. Fill in for each entry.
Biological target: DNA gyrase (Staphylococcus aureus) (UniProt P0A0K8+P20831)
Sequence (P0A0K8 2-644 limits assumed): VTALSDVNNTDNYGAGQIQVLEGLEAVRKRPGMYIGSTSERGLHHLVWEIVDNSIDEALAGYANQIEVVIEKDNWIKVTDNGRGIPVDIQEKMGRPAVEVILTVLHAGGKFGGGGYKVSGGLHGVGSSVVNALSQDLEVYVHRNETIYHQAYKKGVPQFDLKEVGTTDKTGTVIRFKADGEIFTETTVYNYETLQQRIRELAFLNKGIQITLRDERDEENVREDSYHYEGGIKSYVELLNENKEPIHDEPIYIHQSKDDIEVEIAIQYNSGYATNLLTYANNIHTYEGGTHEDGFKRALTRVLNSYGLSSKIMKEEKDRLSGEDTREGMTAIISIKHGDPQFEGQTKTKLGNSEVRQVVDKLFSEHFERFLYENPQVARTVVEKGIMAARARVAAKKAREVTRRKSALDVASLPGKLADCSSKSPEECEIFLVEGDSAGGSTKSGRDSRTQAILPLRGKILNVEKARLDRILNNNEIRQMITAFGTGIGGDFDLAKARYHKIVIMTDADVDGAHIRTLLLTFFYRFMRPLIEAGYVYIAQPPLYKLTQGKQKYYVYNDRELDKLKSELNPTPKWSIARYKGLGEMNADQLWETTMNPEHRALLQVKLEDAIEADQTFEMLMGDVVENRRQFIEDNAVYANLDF
Sequence (P20831 whole entry partner): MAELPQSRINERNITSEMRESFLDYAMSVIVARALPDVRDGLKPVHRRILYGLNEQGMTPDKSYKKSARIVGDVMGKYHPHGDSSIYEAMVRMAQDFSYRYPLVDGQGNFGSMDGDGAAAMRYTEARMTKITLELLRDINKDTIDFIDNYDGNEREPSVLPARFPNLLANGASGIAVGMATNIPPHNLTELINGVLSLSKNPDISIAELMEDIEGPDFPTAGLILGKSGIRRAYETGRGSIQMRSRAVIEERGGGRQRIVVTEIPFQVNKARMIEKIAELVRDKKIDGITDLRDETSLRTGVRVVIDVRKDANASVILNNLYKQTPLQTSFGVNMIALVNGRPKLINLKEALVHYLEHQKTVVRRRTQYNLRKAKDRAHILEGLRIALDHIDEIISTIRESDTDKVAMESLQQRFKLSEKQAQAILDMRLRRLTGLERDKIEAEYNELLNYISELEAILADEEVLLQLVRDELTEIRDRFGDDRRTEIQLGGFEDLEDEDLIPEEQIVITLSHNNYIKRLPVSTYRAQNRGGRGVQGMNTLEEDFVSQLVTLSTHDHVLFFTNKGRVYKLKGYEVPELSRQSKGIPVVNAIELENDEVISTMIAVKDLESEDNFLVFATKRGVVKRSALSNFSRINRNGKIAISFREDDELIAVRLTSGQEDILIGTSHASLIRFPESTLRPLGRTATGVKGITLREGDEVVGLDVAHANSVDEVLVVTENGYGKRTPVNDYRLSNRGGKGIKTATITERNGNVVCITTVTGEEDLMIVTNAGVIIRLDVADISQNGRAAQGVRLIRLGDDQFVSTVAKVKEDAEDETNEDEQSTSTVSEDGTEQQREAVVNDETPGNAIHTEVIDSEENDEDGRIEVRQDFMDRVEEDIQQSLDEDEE
Experiment: In vivo efficacy against Staphylococcus aureus NCTC-10649M after oral administration
Assay type: functional, organism-based
One number for each entry, in mg/kg.

{"columns": ["COMPOUND", "OUTPUT_UNIT", "ED50"],
 "data": [
  ["Cc1c(N2C[C@H]3CCN[C@H]3C2)c(F)cn2c(=O)c(C(=O)O)cc(C3CC3)c12 (single isomer, unassigned)", "mg/kg", 1.5]
]}

For every listed record, write down its ED50.
1. Cc1c(N2C[C@H]3CCC[C@@H](N)[C@H]3C2)c(F)cn2c(=O)c(C(=O)O)cc(C3CC3)c12
2. Cc1c(N2C[C@@H]3CCN[C@@H]3C2)c(F)cn2c(=O)c(C(=O)O)cc(C3CC3)c12 (stereo in doubt; (S,S)45o)
3. NC1CCN(c2nc3c(-c4ccc(F)cc4F)cc(C(=O)O)c(=O)n3cc2F)C1 (stereo not drawn)
4. Cc1c(N2C[C@@H]3[C@@H](N)[C@@H]3C2)c(F)cn2c(=O)c(C(=O)O)cc(C3CC3)c12

1: 1.4; 2: 5; 3: 12; 4: 14.6

* * *

Biological target: DNA gyrase (Staphylococcus aureus) (UniProt P0A0K8+P20831)
Assay: In vitro antibacterial activity against gram-positive organism Staphylococcus aureus NCTC-10649M
Type: functional
Lab note: cut-off is 0.05 µg/mL. Strictly less in MIC is 1. Exactly 0.05 µg/mL or more is -1.

Is it true that MIC reported for CNC1CCN(c2c(F)cn3c(=O)c(C(=O)O)cc(C4CC4)c3c2C)C1 (centres undefined) is less than 0.05 µg/mL?
1

Is it true that MIC reported for `Cc1c(NCCN)c(F)cn2c(=O)c(C(=O)O)cc(C3CC3)c12` is less than 0.05 µg/mL?
-1

Is it true that MIC reported for Cc1c(N2CCC(n3cccc3)C2)c(F)cn2c(=O)c(C(=O)O)cc(C3CC3)c12 (centres undefined) is less than 0.05 µg/mL?
1

Is it true that MIC reported for NC1CCN(c2nc3c(C4CC4)cc(C(=O)O)c(=O)n3cc2F)C1 (centres undefined) is less than 0.05 µg/mL?
-1

Is it true that MIC reported for `C[C@H]1C[C@H](N)CN1c1nc2c(-c3ccc(F)cc3F)cc(C(=O)O)c(=O)n2cc1F` is less than 0.05 µg/mL?
-1

Is it true that MIC reported for `Cc1c(-n2ccnc2)c(F)cn2c(=O)c(C(=O)O)cc(C3CC3)c12` is less than 0.05 µg/mL?
-1

Is it true that MIC reported for Cc1c(N2CCC(N)C2)c(F)cn2c(=O)c(/C(O)=C/[N+](=O)[O-])cc(C3CC3)c12 (centres undefined) is less than 0.05 µg/mL?
-1
